Below are IC50 measurements against CK1ε (Homo sapiens (Human), UniProt P49674) drawn from the literature.
Sequence (P49674 whole entry): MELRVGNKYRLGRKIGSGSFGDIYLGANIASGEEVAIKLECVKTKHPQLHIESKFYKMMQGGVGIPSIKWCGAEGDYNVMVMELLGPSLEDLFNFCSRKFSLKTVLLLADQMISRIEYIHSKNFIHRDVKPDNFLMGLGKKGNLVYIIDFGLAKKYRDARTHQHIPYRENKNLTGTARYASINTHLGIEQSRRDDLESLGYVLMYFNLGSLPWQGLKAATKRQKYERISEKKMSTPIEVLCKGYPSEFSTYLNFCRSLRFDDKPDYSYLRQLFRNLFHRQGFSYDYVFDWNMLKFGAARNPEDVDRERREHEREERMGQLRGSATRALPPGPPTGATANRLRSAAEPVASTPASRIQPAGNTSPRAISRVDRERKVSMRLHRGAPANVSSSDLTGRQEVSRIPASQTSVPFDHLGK
MEASURED_PROPERTY: IC50 (nM)

A: Cc1nc(-c2ccc(F)cc2)c(-c2ccc3nc(NC(=O)c4ccc(F)nc4)cn3n2)n1C
B: CC1(O)CCC(NC(=O)N2CCn3c(Cl)c(-c4cccc(F)c4)c(C(N)=O)c3C2)CC1 (stereo not shown)
C: O=C(Nc1cn2nc(-c3c(-c4ccc(F)cc4)ncn3C3CCN(CC(F)(F)F)CC3)ccc2n1)c1ccnc(F)c1
D: Cn1cc(-c2ccc3nc(NC(=O)c4cnccc4C(F)(F)F)cn3n2)c(-c2ccc(F)cc2)n1
Prompt line: Would you mind ranking these compounds by ascending IC50? Answer with the labels in sequence, matching the requested order.
Response line: B, A, C, D
(B: 1 nM, A: 1.97 nM, C: 7.22 nM, D: 34.8 nM)

I: O=C(Nc1cn2nc(-c3c(-c4ccc(F)cc4)ncn3C3CCN(C(=O)c4c[nH]cn4)CC3)ccc2n1)c1ccnc(F)c1
II: Cn1nc(-c2ccc(F)cc2)c(-c2ccc3nc(NC(=O)c4cccc(-c5cccnc5)c4)cn3n2)c1-c1ccncc1
Prompt line: Which item exceeds the other in IC50, I or II ? Lab note: record the label of whichever item you select.
Response line: II

* * *

// compounds with pIC50 on CK1ε (Homo sapiens (Human)), multi-source literature
pIC50: −log10 of the molar value.
MEASURED_PROPERTY: pIC50

Recorded results for 2 compounds are shown here.
Cn1nc(-c2ccc(F)cc2)c(-c2ccc3nc(NC(=O)c4ccnc(N5CCOCC5)c4)cn3n2)c1-c1ccncc1 8.10
CN(C)C(=O)c1cccc(-c2c(C(N)=O)c3n(c2C2CC2)CCN(C(=O)NC(C)(C)C)C3)c1 6.02

a: O=C(Nc1cn2nc(-c3c(-c4ccc(F)cc4)ncn3CC3CC(F)(F)C3)ccc2n1)c1ccnc(F)c1
b: Cn1nc(-c2ccc(F)cc2)c(-c2ccc3nc(NC(=O)c4cccc(-c5cccnc5)c4)cn3n2)c1C1CCOCC1
c: O=C(Nc1cn2nc(-c3c(-c4ccc(F)cc4)ncn3C3CCN(Cc4ccc(F)cc4)CC3)ccc2n1)c1ccnc(F)c1
d: CC(C)(C)NC(=O)N1CCn2c(c(C(N)=O)c(-c3cccc(OCC4CC4)c3)c2C2CC2)C1
e: O=C(Nc1cn2nc(-c3c(-c4ccc(F)cc4)ncn3C3CCN(C(=O)C4(C(F)(F)F)CCC4)CC3)ccc2n1)c1ccnc(F)c1
Prompt line: Arrange the 5 compounds by rising pIC50, starting with the smallest. Rank them, then answer with their labels in that order.
Response line: d, c, e, b, a
(d: 6.07, c: 7.85, e: 8.13, b: 8.72, a: 8.96)

* * *

pIC50: −log10 of the molar value.
Consider the following pIC50 data for UniProtKB P49674, collected from several reports.
MEASURED_PROPERTY: pIC50

In the examples that follow, each entry is paired with its recorded pIC50.
SUBSTANCE_SMILES	pIC50
O=C(Nc1cn2nc(-c3c(-c4ccc(F)cc4)ncn3C3CCN(Cc4cocn4)CC3)ccc2n1)c1ccnc(F)c1	7.66
CC(C)(C)NC(=O)N1CCn2c(c(C(N)=O)c(-c3ccc(OCc4ccc(F)cc4)c(Cl)c3)c2C2CC2)C1	7.80

A: NCC(=O)N1CCC(n2cnc(-c3ccc(F)cc3)c2-c2ccc3nc(NC(=O)c4ccnc(F)c4)cn3n2)CC1
B: O=C(Nc1cn2nc(-c3c(-c4ccc(F)cc4)ncn3C3CCN(CCC(F)(F)F)CC3)ccc2n1)c1ccnc(F)c1
Prompt line: Could you point out whether the larger pIC50 belongs to A or to B ? Provide the label of your selected option as the answer.
Response line: A

I: O=C(Nc1cn2nc(-c3c(-c4ccc(F)cc4)ncn3CCO)ccc2n1)c1ccnc(F)c1
II: Cn1cc(-c2ccc3nc(NC(=O)c4ccccc4)c(F)n3n2)c(-c2ccc(F)cc2)n1
Prompt line: Which numeric pIC50 is bigger, that of I or that of II ? Mark your answer with the label of the selected entry.
Response line: I
